experiment: Steady-state tryptophan fluorescence and CD with and without POPC liposomes; format: physicochemical; details: with POPC liposomes pH 3; 5 μM peptide, 1.25 mM lipids; excitation 280 nm; 25 °C
Peptide text beside a SMILES is read from it.
readout label: maximum position of the fluorescence spectrum λmax, Pep-PC, pH3
Record the result as a number with its unit.

Give maximum position of the fluorescence spectrum λmax, Pep-PC, pH3 for O=C(O)CC[C@@H]1NC(=O)[C@H](Cc2c[nH]c3ccccc23)NC(=O)[C@H](CS)NC(=O)[C@H](Cc2c[nH]c3ccccc23)NC(=O)[C@H](CCC(=O)O)NC(=O)[C@H](Cc2c[nH]c3ccccc23)NC(=O)[C@H](CCC(=O)O)NC(=O)[C@H](Cc2c[nH]c3ccccc23)NC(=O)[C@H](CCC(=O)O)NC(=O)[C@H](Cc2c[nH]c3ccccc23)NC(=O)[C@H](CCC(=O)O)NC(=O)[C@H](Cc2c[nH]c3ccccc23)NC1=O [c[(WE)5WC]] (cyclo(CWEWEWEWEWEW)) 341.2±0.4 nm
